Assign pEC50 to each entry below.
Tested on: CEM cells HIV-1 protection, formazan growth assay
Experiment: NCI AIDS Antiviral Assay
Experimental: The ability of compounds to protect human CEM cells from HIV-1 infection is measured as a screen for new compounds capable of inhibiting the HIV virus. Five concentrations of drug were tested on uninfected and infected cells and cell growth was measured using a soluble formazan assay. […] Compounds that provided at least 50% protection were retested. Compounds that provided at least 50% protection on retest were listed as moderately active. […]
pEC50: −log10 of the molar value.

Q) Provide one value: measured pEC50 of CCOC(=O)Cc1nc2c(N)ncnc2n1C1OC(COC(C)=O)C(OC(C)=O)C1OC(C)=O (stereo unspecified)
A) < 3.70

Q) Provide one value: measured pEC50 of Cc1cc(C)nc(NS(=O)(=O)c2ccc(NC(=O)c3cccc4c(Nc5ccc(S(N)(=O)=O)cc5)c5ccccc5nc34)cc2)n1
A) < 4.26

Q) Provide one value: measured pEC50 of COC(=O)C(N)CSCc1ccccc1 (stereo unspecified)
A) < 3.16

Q) Provide one value: measured pEC50 of O=C(O)[C@H](CCC[C@H]1C(=O)O[C@H](c2ccccc2)[C@H](c2ccccc2)N1C(=O)OCc1ccccc1)N[C@@H](c1ccccc1)[C@H](O)c1ccccc1
A) < 4.05

Q) Provide one value: measured pEC50 of CC(C)(C)C(=O)ON1N=NC2C3CC(OCc4ccccc4)(OCc4ccccc4)C(O3)C21 (stereo unspecified)
A) < 4.80

Q) Provide one value: measured pEC50 of CN(C)c1ccc(/C=C/C(=O)[O-])cc1.CN(C)c1ccc(/C=C/C(=O)[O-])cc1.[Cu+2]
A) < 5.07

Q) Provide one value: measured pEC50 of CCOC(=O)c1nc2cc(C(F)(F)F)ccc2nc1Nc1ccc(OC)cc1
A) < 3.90

Q) Provide one value: measured pEC50 of NS(=O)(=O)c1ccc(NC(=S)/N=C/c2c(O)c3ccccc3oc2=O)cc1
A) < 3.70

Q) Provide one value: measured pEC50 of COC(=O)C1=C(SC)SC2(C(=O)OC)C3C=C(C)C4C(N13)C42C(=O)OC (stereo unspecified)
A) < 5.44

Q) Provide one value: measured pEC50 of Cc1ccc(N=NC(C(=O)c2ccccc2)C(=O)c2ccccc2)cc1
A) < 4.40

Q) Provide one value: measured pEC50 of Cc1[nH]c(=O)[nH]c(=O)c1CO
A) < 3.70

Q) Provide one value: measured pEC50 of CC(=O)OCC1OC(OC2C(CSC3OC(COC(C)=O)C(OC(C)=O)C(OC(C)=O)C3OC(C)=O)OC(OC(C)=O)C(OC(C)=O)C2OC(C)=O)C(OC(C)=O)C(OC(C)=O)C1OC(C)=O (stereo unspecified)
A) < 4.44

Q) Provide one value: measured pEC50 of C[C@@H]1C[C@H]2[C@@H]3CCC4=CC(=O)CC[C@]4(C)[C@@]3(F)[C@@H](O)C[C@]2(C)[C@@]1(C)O
A) < 3.70

Q) Provide one value: measured pEC50 of Cc1[nH]c(C)c2ccc(=O)ccc12
A) < 3.62

Q) Provide one value: measured pEC50 of COc1cc(C2C=C(c3ccccc3)Oc3cc4c(cc32)OCO4)cc(OC)c1OC (stereo unspecified)
A) < 5.70

Q) Provide one value: measured pEC50 of COc1ccccc1Cn1[nH]c(=O)c2cc([N+](=O)[O-])ccc21
A) < 3.70

Q) Provide one value: measured pEC50 of CC(C)=CCCC1(C)C2COC(=O)C21 (stereo unspecified)
A) < 3.70

Q) Provide one value: measured pEC50 of COc1cc(NCCN)c2ncsc2c1
A) < 3.70

Q) Provide one value: measured pEC50 of Cc1c2ccccc2nc(CN2CCCCC2)[n+]1[O-]
A) < 3.70

Q) Provide one value: measured pEC50 of CCOP(=O)(OCC)C(=O)C1CC1
A) < 2.92

Q) Provide one value: measured pEC50 of CC(=O)c1ccc2c(c1)oc(=O)n2CCN(C)C
A) < 3.70
